Source listed as patent US20260116910A1.

Please provide measured MRGPRX4 activation, fluorescence change (dF/F0), Average for the entries that follow.
Molecular target: MRGPRX4 (Homo sapiens)
Sequence (Q96LA9 whole entry): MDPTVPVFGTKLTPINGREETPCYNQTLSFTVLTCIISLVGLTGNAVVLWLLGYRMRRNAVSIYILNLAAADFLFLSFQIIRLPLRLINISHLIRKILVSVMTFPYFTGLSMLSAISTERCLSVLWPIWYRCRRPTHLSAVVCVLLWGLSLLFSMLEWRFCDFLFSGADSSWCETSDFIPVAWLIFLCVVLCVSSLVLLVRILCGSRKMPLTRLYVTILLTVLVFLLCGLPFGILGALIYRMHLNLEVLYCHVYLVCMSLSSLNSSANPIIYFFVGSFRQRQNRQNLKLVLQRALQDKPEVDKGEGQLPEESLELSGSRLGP
Experiment: MRGPRX4 activation, Fluo-8 Ca2+ FLIPR assay in HEK293T cells stably expressing MRGPRX4
Type: cell-based
Conditions: Conc. (Log[M]) −5.9
Field format: numeric only.

Record CC[C@H]1[C@@H](O)[C@@H]2[C@H](CC[C@]3(C)[C@@H]([C@H](C)CCNC(=O)NS(=O)(=O)c4ccc(C(C)(C)C#N)cc4)CC[C@@H]23)[C@@]2(C)CCCC[C@@H]12 . Reported MRGPRX4 activation, fluorescence change (dF/F0), Average: 0.018

Record CC[C@H]1[C@@H](O)[C@@H]2[C@H](CC[C@]3(C)[C@@H]([C@H](C)CCNC(=O)NS(=O)(=O)c4ccc(C5(CO)CCCC5)cc4)CC[C@@H]23)[C@@]2(C)CCCC[C@@H]12 . Reported MRGPRX4 activation, fluorescence change (dF/F0), Average: 0.018

Record CC[C@H]1[C@@H](O)[C@@H]2[C@H](CC[C@]3(C)[C@@H]([C@H](C)CCNC(=O)NS(=O)(=O)c4ccc(C(C)(C)CN)cc4)CC[C@@H]23)[C@@]2(C)CCCC[C@@H]12 . Reported MRGPRX4 activation, fluorescence change (dF/F0), Average: 0.021

----------
Target: human FXR (NR1H4) (Homo sapiens, UniProt Q96RI1)
Sequence (Q96RI1 1-476 isoform Q96RI1-1): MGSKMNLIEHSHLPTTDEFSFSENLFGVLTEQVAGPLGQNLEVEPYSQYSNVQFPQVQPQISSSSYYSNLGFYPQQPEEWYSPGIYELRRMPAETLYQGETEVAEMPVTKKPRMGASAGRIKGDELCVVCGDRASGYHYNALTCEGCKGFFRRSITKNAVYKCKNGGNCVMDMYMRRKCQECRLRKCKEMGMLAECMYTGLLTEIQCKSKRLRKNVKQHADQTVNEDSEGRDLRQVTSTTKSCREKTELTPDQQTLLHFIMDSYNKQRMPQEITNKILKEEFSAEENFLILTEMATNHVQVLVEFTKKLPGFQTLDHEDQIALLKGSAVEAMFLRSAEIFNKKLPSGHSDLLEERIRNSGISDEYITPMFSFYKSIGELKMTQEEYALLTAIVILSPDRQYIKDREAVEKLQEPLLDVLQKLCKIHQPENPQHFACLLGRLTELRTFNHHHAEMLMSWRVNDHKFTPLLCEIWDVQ
Assay: Human FXR (NR1H4) agonist assessment, FXRE-NanoLuc reporter in HEK293T cells
Assay type: cell-based
Conditions: FXR activation, HEK293T FXRE-NanoLuc reporter, 24 hr; read-out: EC50
pEC50: −log10 of the molar value.
experimentalReadout: pEC50

Record CO/N=C1\C[C@@H]2C[C@H](OC(C)=O)CC[C@]2(C)[C@H]2CC[C@]3(C)[C@@H]([C@H](C)CCC(=O)OC)CC[C@H]3[C@H]12 . Reported pEC50: < 5.00

Record CC[C@H]1[C@@H](O)[C@@H]2[C@H](CC[C@]3(C)[C@@H]([C@H](C)CCNC(=O)NS(=O)(=O)c4cccs4)CC[C@@H]23)[C@@]2(C)CC[C@H](F)C[C@@H]12 . Reported pEC50: > 6.00

Record CC[C@H]1[C@@H](O)[C@@H]2[C@H](CC[C@]3(C)[C@@H]([C@H](C)CCNC(=S)NS(=O)(=O)c4ccc(C(C)(C)CF)cc4)CC[C@@H]23)[C@@]2(C)CCCC[C@@H]12 . Reported pEC50: > 6.00

Record CC[C@H]1[C@@H](O)[C@@H]2[C@H](CC[C@]3(C)[C@@H]([C@H](C)CC#N)CC[C@@H]23)[C@@]2(C)CCCC[C@@H]12 . Reported pEC50: < 5.00

Record CC[C@H]1[C@@H](O)[C@@H]2[C@H](CC[C@]3(C)[C@@H]([C@H](C)CCc4nnc(N)[nH]4)CC[C@@H]23)[C@@]2(C)CCCC[C@@H]12 . Reported pEC50: > 6.00

----------
Please provide measured EC50 for the entries that follow.
Molecular target: human FXR (NR1H4) (Homo sapiens, UniProt Q96RI1)
Assay: Human FXR (NR1H4) agonist assessment, FXRE-NanoLuc reporter in HEK293T cells
Type: cell-based
Details: FXR activation, HEK293T FXRE-NanoLuc reporter, 24 hr; read-out: EC50

Record CC[C@H]1[C@@H](O)[C@@H]2[C@H](CC[C@]3(C)[C@@H]([C@H](C)CCNC(=O)NS(=O)(=O)c4cc(F)cc(F)c4)CC[C@@H]23)[C@@]2(C)CC[C@H](F)C[C@@H]12 . Reported EC50: < 1000 nM

Record CC[C@H]1[C@@H](O)[C@@H]2[C@H](CC[C@]3(C)[C@@H]([C@H](C)CCNC(=O)NS(=O)(=O)c4cc(F)ccc4F)CC[C@@H]23)[C@@]2(C)CC[C@H](F)C[C@@H]12 . Reported EC50: < 1000 nM

Record CC[C@H]1[C@@H](O)[C@@H]2[C@H](CC[C@]3(C)[C@@H]([C@H](C)CCNC(=O)NS(=O)(=O)c4ccc(C(C)(C)C(=O)O)cc4)CC[C@@H]23)[C@@]2(C)CCCC[C@@H]12 . Reported EC50: < 1000 nM

Record CC[C@H]1[C@@H](O)[C@@H]2[C@H](CC[C@]3(C)[C@@H]([C@H](C)CCC(=O)OC)CC[C@@H]23)[C@@]2(C)CCCC[C@@H]12 . Reported EC50: 1000 to 10000 nM

Record CC[C@H]1[C@@H](O)[C@@H]2[C@H](CC[C@]3(C)[C@@H]([C@H](C)CCNC(=O)NS(=O)(=O)c4ccc5c(c4)CCN5C(C)=O)CC[C@@H]23)[C@@]2(C)CCCC[C@@H]12 . Reported EC50: < 1000 nM

Record CC[C@H]1[C@@H](O)[C@@H]2[C@H](CC[C@]3(C)[C@@H]([C@H](C)CCNC(=O)NS(=O)(=O)c4cc(F)ccc4F)CC[C@@H]23)[C@@]2(C)CCC(F)(F)C[C@@H]12 . Reported EC50: < 1000 nM

Record CC[C@H]1[C@@H](O)[C@@H]2[C@H](CC[C@]3(C)[C@@H]([C@H](C)COC(=O)NS(=O)(=O)c4ccc(N5CCCCC5)nc4)CC[C@@H]23)[C@@]2(C)CCCC[C@@H]12 . Reported EC50: < 1000 nM

Record CC[C@H]1[C@@H](O)[C@@H]2[C@H](CC[C@]3(C)[C@@H]([C@H](C)CCNC(=O)NS(=O)(=O)c4cc(F)ccc4F)CC[C@@H]23)[C@@]2(C)CCCC[C@@H]12 . Reported EC50: < 1000 nM

Record CC[C@H]1[C@@H](O)[C@@H]2[C@H](CC[C@]3(C)[C@@H]([C@H](C)CCO)CC[C@@H]23)[C@@]2(C)CCCC[C@@H]12 . Reported EC50: 1000 to 10000 nM

Record CC[C@H]1[C@@H](O)[C@@H]2[C@H](CC[C@]3(C)[C@@H]([C@H](C)COC(=O)NS(=O)(=O)c4ccc5c(c4)CCC(C)(C)O5)CC[C@@H]23)[C@@]2(C)CCCC[C@@H]12 . Reported EC50: < 1000 nM

Record C[C@H](CCC(=O)O)[C@H]1CC[C@H]2[C@@H]3CC[C@@H]4C[C@H](O)CC[C@]4(C)[C@H]3C[C@@H](O)[C@]12C . Reported EC50: < 1000 nM

Record CC[C@H]1[C@@H](O)[C@@H]2[C@H](CC[C@]3(C)[C@@H]([C@H](C)CCNC(=O)NS(=O)(=O)c4ccc(C(C)(C)CF)cc4)CC[C@@H]23)[C@@]2(C)CCC(F)(F)C[C@@H]12 . Reported EC50: < 1000 nM

Record CC[C@H]1[C@@H](O)[C@@H]2[C@H](CC[C@]3(C)[C@@H]([C@H](C)CCC(=O)NS(=O)(=O)CC)CC[C@@H]23)[C@@]2(C)CCCC[C@@H]12 . Reported EC50: < 1000 nM

Record CC[C@H]1[C@@H](O)[C@@H]2[C@H](CC[C@]3(C)[C@@H]([C@H](C)CCNC(=O)NS(=O)(=O)c4cccs4)CC[C@@H]23)[C@@]2(C)CCCC[C@@H]12 . Reported EC50: 1000 to 10000 nM

Record CC[C@H]1[C@@H](O)[C@@H]2[C@H](CC[C@]3(C)[C@@H]([C@H](C)CCNC(=O)NS(=O)(=O)C[C@]45CCC(CC4=O)C5(C)C)CC[C@@H]23)[C@@]2(C)CCCC[C@@H]12 . Reported EC50: < 1000 nM

Record CC[C@H]1[C@@H](O)[C@@H]2[C@H](CC[C@]3(C)[C@@H]([C@H](C)CCNC(=O)NS(=O)(=O)c4ccc(C(C)(C)C)cc4)CC[C@@H]23)[C@@]2(C)CCCC[C@@H]12 . Reported EC50: < 1000 nM

Record CC[C@H]1[C@@H](O)[C@@H]2[C@H](CC[C@]3(C)[C@@H]([C@H](C)CCNC(=O)NS(=O)(=O)N(C)C)CC[C@@H]23)[C@@]2(C)CCCC[C@@H]12 . Reported EC50: < 1000 nM

Record CC[C@H]1[C@@H](O)[C@@H]2[C@H](CC[C@]3(C)[C@@H]([C@H](C)CCNC(=O)NS(=O)(=O)c4ccc5c(c4)OCO5)CC[C@@H]23)[C@@]2(C)CCCC[C@@H]12 . Reported EC50: < 1000 nM

Record C[C@H](CC/C=C/C(=O)O)[C@H]1CC[C@H]2[C@@H]3CC[C@@H]4C[C@H](O)CC[C@]4(C)[C@H]3C[C@H](O)[C@]12C . Reported EC50: 1000 to 10000 nM

Record CC[C@H]1[C@@H](O)[C@@H]2[C@H](CC[C@]3(C)[C@@H]([C@H](C)CCC(=O)NS(=O)(=O)C(C)(C)C)CC[C@@H]23)[C@@]2(C)CCCC[C@@H]12 . Reported EC50: < 1000 nM

Record CC[C@H]1[C@@H](O)[C@@H]2[C@H](CC[C@]3(C)[C@@H]([C@H](C)CCC(=O)O)CC[C@@H]23)[C@@]2(C)CC[C@H](F)C[C@@H]12 . Reported EC50: 1000 to 10000 nM
